Kindly supply the reported IC50 values for the records listed here.
TARGET_DESC: Tyk2 (Homo sapiens (Human))
PROTOCOL_TEXT: pSTAT4 Cell Assay (MSD, NK92 cells)
Assay type: cell-based
Procedure: The inhibitory potency of compounds of the disclosure against the Tyk2 kinase activity on STAT4 was evaluated using an MSD-platform plate-based assay format. NK92 cells natively expressing STAT4 and Tyk2 were serum-starved to reduce background phosphorylation levels, then cells were treated compounds for 1 hr with a 10-point four-fold dilution series starting at 10 μM. Cells were then stimulated with 30 ng/mL IL2 for 15 minutes. […]

Some molecules with recorded IC50:
INSERT INTO assay_data (molecule, recorded_value) VALUES
  ('CCc1cc(Nc2cc(NC(C)=O)ncc2-c2ccc(CN3CCCC3)cn2)nc(C(C)(F)F)n1 [Example 901]', '≤ 0.01 µM'),
  ('CCc1cc(Nc2cc(NC(C)=O)ncc2-c2cnccn2)nc(C(C)(F)F)n1 [Example 823]', '0.01 to 0.1 µM'),
  ('CC(=O)Nc1cc(Nc2cc(C)nc(C(C)(F)F)n2)c(-c2cc(C(C)(C)N(C)C)n(C)n2)cn1 [Example 802]', '≤ 0.01 µM');

Next, consider the following molecule.
Report IC50 for COC1(C)CN(c2cnc(-c3cnc(NC(C)=O)cc3Nc3ccnc(C(C)(F)F)n3)cn2)C1 [Example 868] 0.01 to 0.1 µM

====

TARGET_DESC: Tyk2 (Homo sapiens (Human))
PROTOCOL_TEXT: pSTAT4 Cell Assay (MSD, NK92 cells)
Assay type: cell-based
pIC50: −log10 of the molar value.
MEASURED_ATTRIBUTE: pIC50

Some compounds with recorded pIC50:
INSERT INTO results (compound, recorded_value) VALUES
  ('CC(=O)Nc1cc(Nc2cc(C)nc(C(C)(F)F)n2)c(-c2nsc(N(C)C)n2)cn1', '6.00 to 7.00'),
  ('CC(=O)Nc1cc(Nc2cc(C)nc(C(C)(F)F)n2)c(-c2cnc(C(F)F)cn2)cn1', '7.00 to 8.00'),
  ('CC(=O)Nc1cc(Nc2cc(C)nc(C(C)(F)F)n2)c(-c2ccc3c(n2)OCC(C)(C)O3)cn1', '≥ 8.00'),
  ('CCc1cc(Nc2cc(NC(C)=O)ncc2-c2ccc(C(C)(C)O)cn2)nc(C(C)(F)F)n1', '≥ 8.00');

Consider the following items and state reported pIC50 for each.
1. COc1cnc(-c2cnc(NC(C)=O)cc2Nc2ccnc(C(C)(F)F)n2)cn1
2. COC(C)(C)c1cnc(-c2cnc(NC(C)=O)cc2Nc2ccnc(C(C)(F)F)n2)cn1
3. CCc1cc(Nc2cc(NC(C)=O)ncc2-c2ccc(N(C)C)nn2)nc(C(C)(F)F)n1
4. CCc1cc(Nc2cc(NC(C)=O)ncc2-c2ccnc(CN3C[C@H]4C[C@@H](C3)O4)n2)nc(C(C)(F)F)n1
5. CC(=O)Nc1cc(Nc2cc(C)nc(C(C)(F)F)n2)c(-c2ccc(C(F)F)cn2)cn1
6. CC(=O)Nc1cc(Nc2cc(C)nc(C(C)(F)F)n2)c(-c2csc(CN(C)C)n2)cn1
7. CC(=O)Nc1cc(Nc2ccnc(C(C)(F)F)n2)c(-c2ccc(CN3CCOC[C@H]3C)cn2)cn1

7.00 to 8.00
7.00 to 8.00
≥ 8.00
7.00 to 8.00
≥ 8.00
≥ 8.00
≥ 8.00

Consider the following items and state reported pIC50 for each.
1. CC(=O)Nc1cc(Nc2cc(C)nc(C(C)(F)F)n2)c(-c2cc(CN3CCN(C)CC3)n(C)n2)cn1
2. CCc1cc(Nc2cc(NC(C)=O)ncc2-c2cnc(CN3CCCC3)cn2)nc(C(C)(F)F)n1
3. CC(=O)Nc1cc(Nc2ccnc(C(C)(F)F)n2)c(-c2ccc(CN3CCOC[C@@H]3C)cn2)cn1
4. CCc1cc(Nc2cc(NC(=O)NC)ncc2-c2cnccn2)nc(C(C)(F)F)n1

["≥ 8.00", "≥ 8.00", "≥ 8.00", "7.00 to 8.00"]

====

TARGET_DESC: JH2 domain of human Tyk2 (Homo sapiens (Human), UniProt P29597)
Sequence (P29597 575-876): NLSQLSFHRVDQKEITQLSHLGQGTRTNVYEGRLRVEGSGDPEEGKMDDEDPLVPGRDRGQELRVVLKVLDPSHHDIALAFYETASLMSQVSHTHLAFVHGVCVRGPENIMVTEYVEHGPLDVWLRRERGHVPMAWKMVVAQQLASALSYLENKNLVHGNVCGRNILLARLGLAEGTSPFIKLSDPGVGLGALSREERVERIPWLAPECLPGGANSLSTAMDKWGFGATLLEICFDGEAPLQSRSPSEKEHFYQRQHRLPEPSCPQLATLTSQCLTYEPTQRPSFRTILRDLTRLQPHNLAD
PROTOCOL_TEXT: JH2 Biochemical Assay (TR-FRET probe displacement)
Type: binding
TEST_CONTEXT: TR-FRET probe displacement, JH2 domain of human Tyk2
MEASURED_ATTRIBUTE: IC50

Some compounds with recorded IC50:
INSERT INTO assay_data (structure_smiles_string, recorded_value) VALUES
  ('COc1cncc(-c2cc(Nc3cc(NC(C)=O)ncc3OC)nc(C(C)(F)F)n2)c1', '10 to 100 nM'),
  ('CC(=O)Nc1cc(Nc2ccnc(C(C)(C)F)c2)c(-c2ncc(F)cn2)cn1', '10 to 100 nM'),
  ('COc1cc(-c2cnc(NC(C)=O)cc2Nc2ccnc(C(C)(F)F)n2)nc(C)n1', '≤ 10 nM'),
  ('CC(=O)Nc1cc(Nc2ccnc(C(C)(F)F)n2)c(-c2ncn(C)n2)cn1', '10 to 100 nM'),
  ('CCc1cc(Nc2cc(NC(C)=O)ncc2-c2ccc(CN(C)C)cn2)nc(C(C)(F)F)n1', '≤ 10 nM');

Consider the following items and state reported IC50 for each.
1. CC(=O)Nc1cc(Nc2cc(C)nc(C(C)(F)F)n2)c(-c2nnc(N(C)C)s2)cn1
2. CCOc1cnc(NC(C)=O)cc1Nc1cc(C(C)(F)F)ccn1

≤ 10 nM
10 to 100 nM

Report IC50 for CCOc1cnc(NC(C)=O)cc1Nc1cc(O[C@H]2C[C@H](OC)C2)cc(C(C)(F)F)n1 ≤ 10 nM

====

TARGET_DESC: Tyk2 (Homo sapiens (Human), UniProt P29597)
Sequence (P29597 whole entry): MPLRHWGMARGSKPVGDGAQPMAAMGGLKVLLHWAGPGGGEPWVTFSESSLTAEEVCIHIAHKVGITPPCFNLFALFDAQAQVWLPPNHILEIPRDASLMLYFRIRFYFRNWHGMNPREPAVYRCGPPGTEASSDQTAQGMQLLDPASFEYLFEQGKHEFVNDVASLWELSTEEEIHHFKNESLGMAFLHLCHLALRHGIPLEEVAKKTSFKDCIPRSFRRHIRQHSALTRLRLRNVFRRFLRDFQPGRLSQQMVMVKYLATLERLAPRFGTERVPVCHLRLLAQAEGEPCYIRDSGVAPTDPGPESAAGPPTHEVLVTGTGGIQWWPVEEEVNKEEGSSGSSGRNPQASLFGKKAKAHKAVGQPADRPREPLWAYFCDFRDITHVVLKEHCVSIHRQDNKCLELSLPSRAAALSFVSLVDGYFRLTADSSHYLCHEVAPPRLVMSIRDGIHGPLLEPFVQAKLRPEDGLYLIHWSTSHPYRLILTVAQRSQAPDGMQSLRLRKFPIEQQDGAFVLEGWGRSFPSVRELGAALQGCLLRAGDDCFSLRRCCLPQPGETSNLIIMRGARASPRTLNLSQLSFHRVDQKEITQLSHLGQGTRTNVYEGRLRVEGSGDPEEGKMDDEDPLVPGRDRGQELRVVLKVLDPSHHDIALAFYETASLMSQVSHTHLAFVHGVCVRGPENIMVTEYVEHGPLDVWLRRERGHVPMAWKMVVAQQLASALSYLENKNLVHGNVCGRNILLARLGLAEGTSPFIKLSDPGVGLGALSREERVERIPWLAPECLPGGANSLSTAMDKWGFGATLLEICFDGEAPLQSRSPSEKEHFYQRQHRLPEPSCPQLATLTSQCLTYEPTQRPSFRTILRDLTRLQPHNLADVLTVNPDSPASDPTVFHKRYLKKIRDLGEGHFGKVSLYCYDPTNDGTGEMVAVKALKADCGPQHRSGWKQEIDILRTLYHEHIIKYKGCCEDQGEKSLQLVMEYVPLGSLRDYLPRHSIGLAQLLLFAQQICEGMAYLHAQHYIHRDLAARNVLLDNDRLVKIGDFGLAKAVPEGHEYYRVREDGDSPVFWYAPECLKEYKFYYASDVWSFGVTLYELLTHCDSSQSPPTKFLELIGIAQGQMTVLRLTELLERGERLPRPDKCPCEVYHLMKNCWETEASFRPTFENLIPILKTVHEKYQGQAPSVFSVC
PROTOCOL_TEXT: pSTAT4 Cell Assay (MSD, NK92 cells)
Assay type: cell-based
TEST_CONTEXT: MSD
MEASURED_ATTRIBUTE: IC50

Some compounds with recorded IC50:
INSERT INTO assay_data (compound, measured_attribute, recorded_value) VALUES
  ('CC(=O)Nc1cc(Nc2cc(C)nc(C34COC(C)(C3)C4)n2)c(-c2ccn(C)n2)cn1', 'IC50', '≥ 1 µM'),
  ('CC(=O)Nc1cc(Nc2cccc(C3CCOC3)n2)c(-c2ccn(C)n2)cn1 (stereo not drawn)', 'IC50', '0.01 to 0.1 µM'),
  ('CCCCOc1cnc(NC(C)=O)cc1Nc1cc(C)nc(C(C)(F)F)n1', 'IC50', '≤ 0.01 µM'),
  ('CC(=O)Nc1cc(Nc2cc(C)nc(C(C)(F)F)n2)c(OCCC(F)F)cn1', 'IC50', '0.01 to 0.1 µM'),
  ('CNC(=O)COc1cnc(NC(C)=O)cc1Nc1cc(C)nc(C(C)(F)F)n1', 'IC50', '0.01 to 0.1 µM'),
  ('CC(=O)Nc1cc(Nc2cc(C)nc(C(C)(F)F)n2)c(-c2ncns2)cn1', 'IC50', '≤ 0.01 µM'),
  ('CC(=O)Nc1cc(Nc2cc(C)nc(C34COC(C3)C4)n2)c(-c2ccc(C(F)F)cn2)cn1', 'IC50', '≤ 0.01 µM'),
  ('COc1nc(C)cc(-c2cnc(NC(C)=O)cc2Nc2cc(C)nc(C(C)(F)F)n2)n1', 'IC50', '≤ 0.01 µM');

Consider the following items and state reported IC50 for each.
1. COc1cc(-c2cnc(NC(C)=O)cc2Nc2cccc(C(C)(F)F)n2)ncn1
2. CC(=O)Nc1cc(Nc2ccnc(C(C)(F)F)n2)c(-c2ccnc(C)n2)cn1
3. CC(=O)Nc1cc(Nc2ccnc(C(C)(F)F)n2)c(-c2ncccc2F)cn1
4. CC(=O)Nc1cc(Nc2cc(C)nc(C(C)(F)F)n2)c(-c2ncc(C(F)F)cn2)cn1

1. ≤ 0.01 µM
2. ≤ 0.01 µM
3. 0.1 to 1 µM
4. 0.01 to 0.1 µM

====

TARGET_DESC: Tyk2 (Homo sapiens (Human))
PROTOCOL_TEXT: pSTAT4 Cell Assay (MSD, NK92 cells)
Format: cell-based
TEST_CONTEXT: MSD
Kindly supply the reported IC50 values for the records listed here.

INSERT INTO results (compound, measured_attribute, recorded_value) VALUES
  ('CCC1(COc2cnc(NC(C)=O)cc2Nc2cc(C)nc(C(C)(F)F)n2)COC1', 'IC50', '10 to 100 nM'),
  ('CC(=O)Nc1cc(Nc2cccc(C(C)(F)F)n2)c(OCCN2CCCC2)cn1', 'IC50', '10 to 100 nM'),
  ('CCOc1cnc(NC(C)=O)cc1Nc1cc(C)nc(C(C)(F)F)n1', 'IC50', '10 to 100 nM');

Consider the following items and state reported IC50 for each.
1. CC(=O)Nc1cc(Nc2cc(C)nc(C(C)(F)F)n2)c(OCC(F)(F)F)cn1
2. COCCOc1cc(Nc2cc(NC(C)=O)ncc2-c2ccncn2)nc(C(C)(F)F)n1

1: 100 to 1000 nM; 2: ≤ 10 nM

Consider the following items and state reported IC50 for each.
1. CC(=O)Nc1cc(Nc2cc(C)nc([C@]34CO[C@](CF)(C3)C4)n2)c(-c2ccn(C)n2)cn1
2. COc1ccc(-c2cnc(NC(C)=O)cc2Nc2cc(C)nc(C(C)(F)F)n2)nn1
3. CC(=O)Nc1cc(Nc2cc(C)nc(C(C)(F)F)n2)c(OCC(F)C(C)C)cn1 (centres unmarked)

1: ≥ 1000 nM; 2: ≤ 10 nM; 3: 10 to 100 nM

// data source = patent US20260028365A1
